Every entry's value here was drawn from ChEMBL document CHEMBL1126455.

# target.or.system: UniProt:P21731
# Sequence (P21731 whole entry): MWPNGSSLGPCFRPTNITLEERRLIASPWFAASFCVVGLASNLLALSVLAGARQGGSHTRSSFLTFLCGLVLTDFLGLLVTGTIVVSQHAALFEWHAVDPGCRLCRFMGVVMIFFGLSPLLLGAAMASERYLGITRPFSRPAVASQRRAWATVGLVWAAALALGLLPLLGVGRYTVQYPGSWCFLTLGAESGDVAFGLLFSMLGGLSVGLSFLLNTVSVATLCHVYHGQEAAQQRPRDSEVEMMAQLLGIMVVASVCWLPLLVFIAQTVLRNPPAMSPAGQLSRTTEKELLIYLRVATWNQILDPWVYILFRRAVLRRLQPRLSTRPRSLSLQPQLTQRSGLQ
# assay.text: Competition factor for Thromboxane A2 receptor/Prostaglandin H2 receptor was determined by CF=(ID50-test)/(ID50-standard)
Recorded CF by entry

{"compound": "O=C(O)CCC/C=C\\C[C@H]1[C@H](NS(=O)(=O)c2ccc(F)cc2)C2CC1(c1ccc(F)cc1)CO2 (stereo partly specified)", "CF": 120}
{"compound": "O=C(O)COCCCC[C@H]1[C@H](CNS(=O)(=O)c2ccc(Cl)c(Cl)c2)C2CC1(c1ccc(F)cc1)CO2 (stereo partly specified)", "CF": 0.4}
{"compound": "O=C(O)CCC/C=C\\C[C@H]1[C@H](CNS(=O)(=O)c2ccc(Cl)cc2)C2CC1(c1ccc(F)cc1)CO2 (stereo partly specified)", "CF": 0.2}
{"compound": "Cc1ccc(S(=O)(=O)N[C@@H]2C3CC(c4ccc(F)cc4)(CO3)[C@H]2C/C=C\\COCC(=O)O)cc1 (stereo partly specified)", "CF": 170}
{"compound": "Cc1ccc(S(=O)(=O)N[C@@H]2C3CC(c4ccc(F)cc4)(CO3)[C@H]2C/C=C\\CCCC(=O)O)cc1 (stereo partly specified)", "CF": 45}
{"compound": "O=C(O)COCCCC[C@H]1[C@H](CNS(=O)(=O)c2ccc(Cl)cc2)C2CC1(c1ccc(F)cc1)CO2 (stereo partly specified)", "CF": 0.1}
{"compound": "O=C(O)CCC/C=C\\C[C@H]1[C@H](CNS(=O)(=O)c2ccc(Cl)c(Cl)c2)C2CC1(c1ccc(F)cc1)CO2 (stereo partly specified)", "CF": 0.5}
{"compound": "O=C(O)COCCCC[C@H]1[C@H](CNS(=O)(=O)c2ccc(Cl)c(Cl)c2)C2CC1(c1ccc(-c3ccccc3)cc1)CO2 (stereo partly specified)", "CF": 3}
{"compound": "O=C(O)COCC=CC[C@H]1[C@H](NS(=O)(=O)c2ccc(F)cc2)C2CC1(c1ccc(F)cc1)CO2 (stereo partly specified)", "CF": 400}
{"compound": "O=C(O)CCC/C=C\\C[C@H]1[C@H](CNS(=O)(=O)c2ccc(Cl)c(Cl)c2)C2CC1(c1ccc(-c3ccccc3)cc1)CO2 (stereo partly specified)", "CF": 4.2}

// query Consider the compound shown here: Cc1ccc(S(=O)(=O)N[C@@H]2C3CC(c4ccc(F)cc4)(CO3)[C@H]2CCCCOCC(=O)O)cc1 (stereo partly specified) What is its recorded CF?
// result 27

// query Thanks! And O=C(O)CCC/C=C\C[C@H]1[C@H](CNS(=O)(=O)c2ccc(F)cc2)C2CC1(c1ccc(F)cc1)CO2 (stereo partly specified) ?
// result 0.3

// query Thanks! And Cc1ccc(S(=O)(=O)NC[C@@H]2C3CC(c4ccc(F)cc4)(CO3)[C@H]2C/C=C\CCCC(=O)O)cc1 (stereo partly specified) ?
// result 0.4

// query Thanks! And O=C(O)COCCCC[C@H]1[C@H](CNS(=O)(=O)c2ccc(F)cc2)C2CC1(c1ccc(F)cc1)CO2 (stereo partly specified) ?
// result 0.5

// query Thanks! And Cc1ccc(S(=O)(=O)NC[C@@H]2C3CC(c4ccc(F)cc4)(CO3)[C@H]2CCCCOCC(=O)O)cc1 (stereo partly specified) ?
// result 0.4

// query Thanks! And O=C(O)CCCCCC[C@H]1[C@H](CNS(=O)(=O)c2ccc(Cl)c(Cl)c2)C2CC1(c1ccc(-c3ccccc3)cc1)CO2 (stereo partly specified) ?
// result 12
